B1: Azoarcus group I ribozyme (parent)
chain: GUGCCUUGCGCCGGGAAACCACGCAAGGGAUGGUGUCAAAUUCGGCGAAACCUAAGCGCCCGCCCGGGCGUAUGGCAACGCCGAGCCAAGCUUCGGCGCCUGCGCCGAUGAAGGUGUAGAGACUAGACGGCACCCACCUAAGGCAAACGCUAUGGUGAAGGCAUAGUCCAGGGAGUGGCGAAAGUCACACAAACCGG

- Variants of: B1
- protocol description: reverse-splicing fitness (ratio to wild type); higher = more active; in vitro selection; Mg2+ level not given
Rule: reverse-splicing fitness of 0.01 or more gives 1 (yes); anything lower gives 0 (no).

Look over these answered cases.
C82A A111U A145U C169A U176G | 0 (no)
C82G A111U A120C A145U C150A C169A U176A | 1 (yes)
A111U A120G A145C C150A C169G U176C | 1 (yes)
A111U A120G A145U C150U C169U | 1 (yes)
C82A A111G A120G A145U C150A C169G U176A | 1 (yes)
A111C A120C C169G U176C | 1 (yes)
C82G A120U C150A C169A | 0 (no)
C82A C150A C169A | 1 (yes)
A111G C169A | 1 (yes)
A111G A120G A145G C150U C169A U176G | 0 (no)

Query: Does the reported reverse-splicing fitness for C82A A111U A145G C150G U176A fall at or above the 0.01 mark?
Response: 0 (no)
